Recorded TGI by entry
Tested on: MDA-MB-231 breast
Test: NCI tumour cell line growth inhibition, 48 h
observation-type: TGI (µM)

>  <molecule>
C[n+]1cccc(NC(=O)c2ccc3ccc4ccc(C(=O)Nc5ccc[n+](C)c5)nc4c3n2)c1

>  <lt-gt-eq>
>

>  <value-reported>
52.4

$$$$
>  <molecule>
CC(C)CCNC(=O)c1ccc(CNC(=O)/C=C/c2ccc3ccccc3c2)cc1

>  <lt-gt-eq>
>

>  <value-reported>
100

$$$$
>  <molecule>
Cc1csc2nc(-c3cc([N+](=O)[O-])c(Cl)cc3Cl)c(/C=N/N=C(N)N)n12

>  <lt-gt-eq>
=

>  <value-reported>
28

$$$$
>  <molecule>
CCCCCCCCCCCCCCCC(=O)NS(=O)(=O)OC[C@H]1O[C@@H](n2cnc3c(N)ncnc32)[C@H](O)[C@@H]1O

>  <lt-gt-eq>
=

>  <value-reported>
1.71

$$$$
>  <molecule>
CCOC(=O)c1sc2nc(SC)nc3c2c1NC(=O)CN3c1ccc(F)cc1

>  <lt-gt-eq>
>

>  <value-reported>
100

$$$$
>  <molecule>
Nc1nc2ccc(CNc3ccc(C(=O)NC(CC(=O)O)C(=O)O)cc3)cc2c(=O)[nH]1 (stereo not given)

>  <lt-gt-eq>
>

>  <value-reported>
100

$$$$
>  <molecule>
CC(=O)OC(COc1ccc2c(c1)[n+]([O-])nc(N)[n+]2[O-])CN1CCCCC1 (stereo not given)

>  <lt-gt-eq>
=

>  <value-reported>
28

$$$$
>  <molecule>
O=S(=O)(O)c1c(Cl)c(Cl)c(O)c2ncccc12

>  <lt-gt-eq>
>

>  <value-reported>
93.1

$$$$
>  <molecule>
NC(=O)c1c[nH]c2ncnc(N)c12

>  <lt-gt-eq>
>

>  <value-reported>
100

$$$$
>  <molecule>
O=C(O)c1ccc(CSc2nc3ccccc3[nH]2)cc1

>  <lt-gt-eq>
>

>  <value-reported>
100

$$$$
>  <molecule>
Cn1c2c(c3ccccc31)CCN1C[C@@H]3CCCC[C@H]3C[C@@H]21

>  <lt-gt-eq>
=

>  <value-reported>
8.66

$$$$
>  <molecule>
COc1cc2c(Nc3ccc(-c4ccc(N)cc4)cc3)ncnc2c(OC)c1OC

>  <lt-gt-eq>
>

>  <value-reported>
100

$$$$
>  <molecule>
CC/C(Cl)=N\OC(=O)Nc1ccc(F)c(Cl)c1

>  <lt-gt-eq>
=

>  <value-reported>
41.5

$$$$
>  <molecule>
NC(=O)C1=C(O)[C@@]2(O)C(=O)C3=C(O)c4c(O)cccc4CC3C[C@H]2CC1=O (stereo not given in full)

>  <lt-gt-eq>
=

>  <value-reported>
11.1

$$$$
>  <molecule>
Cn1cc(-c2csc(-c3ccccc3)n2)c2cccnc21

>  <lt-gt-eq>
=

>  <value-reported>
30.8

$$$$
>  <molecule>
CSC12c3cc(C)n(-c4ccc(I)cc4)c3CC(C)(C)CN1C(=O)C2Oc1ccccc1 (stereo not given)

>  <lt-gt-eq>
>

>  <value-reported>
100

$$$$
>  <molecule>
Cc1ccc(C2=NN(c3ccc(S(=O)(=O)NC(=O)NCc4ccccc4)cc3)C(c3ccc(N(C)C)cc3)C2)c(C)c1 (stereo not given)

>  <lt-gt-eq>
=

>  <value-reported>
22.4

$$$$
>  <molecule>
O=C1CSC(c2ccccc2)N1c1ccc(-c2ccc(-n3c(-c4ccccc4)nc4ccccc4c3=O)cc2)cc1 (stereo not given)

>  <lt-gt-eq>
>

>  <value-reported>
100

$$$$
>  <molecule>
CC(C)[C@@]12C[C@@H](OC(=O)COC(=O)c3ccccc3)[C@@](C)(O1)[C@@H]1CC[C@@H](C)[C@H]1[C@@H]2OC(=O)/C=C/c1ccccc1

>  <lt-gt-eq>
>

>  <value-reported>
100

$$$$
>  <molecule>
O=C(Cc1cc(O)ccc1O)NO

>  <lt-gt-eq>
=

>  <value-reported>
47

$$$$
